Hey, just so you know, these numbers are from PubChem BioAssay (NCI).

- Test system: M19-MEL melanoma
- Method notes: NCI tumour cell line growth inhibition, 48 h
Let's look at some compounds and their measured TGI.
Field format: number, assumed µM, no unit text.

COc1ccc(-c2oc(/C=N/NC(N)=S)c([N+](=O)[O-])c2-c2ccc(OC)c(OC)c2)cc1OC | 63.1
Cn1c(=O)nc2n(-c3cc(C(F)(F)F)cc(C(F)(F)F)c3)c3ccccc3nc-2c1=O | 29.5
O=C(Cc1nc2c3c(ccc2[nH]c1=O)C(=O)c1ccccc1C3=O)C(=O)Nc1ccccc1[N+](=O)[O-] | 79.5

Field: next compound
[in] Please look up its TGI: CCC1CN2CCc3cc(OC)c(OC)cc3C2CC1CC1c2cc(OC)c(OC)cc2CCN1C(=O)C1CCCN1 (stereo not given)
[out] 36.6
